Hey, just so you know, these numbers are from ChEMBL document CHEMBL3739334.

target: UniProt:P05067; test: Inhibition of amyloid beta (1 to 42 residues) (unknown origin) aggregation after 24 hrs by thioflavin T assay
pIC50: −log10 of the molar value.
What pIC50 was measured for each of the following?

# count of solved cases: 3
CC1=CC[C@@H]2[C@@]3(C)C=CC(=O)OC(C)(C)[C@@H]3CC[C@@]2(C)[C@]12Cc1c(c(C)c(C)oc1=O)O2 = < 3.52
CC1=CC[C@@H]2[C@@]3(C)[C@@H](O)CC(=O)OC(C)(C)[C@@H]3CC[C@@]2(C)[C@]12Cc1c(c(C)c(C)oc1=O)O2 = < 3.52
O=C(/C=C/c1ccc(O)c(O)c1)O[C@H](Cc1ccc(O)c(O)c1)C(=O)O [ROSMARINIC ACID] = 4.14

// below: pIC50 requested for another molecule
State its pIC50 on UniProt:P05067: `C[C@@H]1C[C@@]23C[C@H]4C(C)(C)[C@@]5(C[C@]4(CN2C1=O)N(C)C3=O)C(=O)Nc1c5ccc2c1OC=CC(C)(C)O2`
< 3.52

###

I'd be grateful if you could share measured IC50 for these entries.
molecular target: Amyloid-beta precursor protein (Homo sapiens); assay: Inhibition of amyloid beta (1 to 42 residues) (unknown origin) aggregation after 24 hrs by thioflavin T assay
Sequence (P05067 whole entry, the tested form may be a part): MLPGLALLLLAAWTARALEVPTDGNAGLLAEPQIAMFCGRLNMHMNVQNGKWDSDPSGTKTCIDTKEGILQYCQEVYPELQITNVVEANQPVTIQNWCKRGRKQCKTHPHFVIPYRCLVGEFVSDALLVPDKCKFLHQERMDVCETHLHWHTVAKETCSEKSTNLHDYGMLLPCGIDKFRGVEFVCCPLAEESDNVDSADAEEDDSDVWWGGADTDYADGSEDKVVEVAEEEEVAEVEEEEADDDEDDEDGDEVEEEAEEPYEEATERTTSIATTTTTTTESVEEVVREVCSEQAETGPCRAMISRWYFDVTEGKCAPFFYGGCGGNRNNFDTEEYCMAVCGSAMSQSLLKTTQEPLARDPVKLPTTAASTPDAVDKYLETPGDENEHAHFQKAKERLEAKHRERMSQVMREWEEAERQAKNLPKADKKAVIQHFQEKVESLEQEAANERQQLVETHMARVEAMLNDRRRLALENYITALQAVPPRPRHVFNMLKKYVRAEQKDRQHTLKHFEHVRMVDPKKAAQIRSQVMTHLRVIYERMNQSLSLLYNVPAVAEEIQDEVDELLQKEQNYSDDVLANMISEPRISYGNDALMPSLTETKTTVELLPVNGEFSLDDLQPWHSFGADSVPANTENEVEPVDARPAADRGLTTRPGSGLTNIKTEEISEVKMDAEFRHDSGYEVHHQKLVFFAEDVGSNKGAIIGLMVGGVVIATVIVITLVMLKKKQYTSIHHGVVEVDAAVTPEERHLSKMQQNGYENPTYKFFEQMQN
Give bare numbers, in µM.

Would you be so kind as to report IC50 for each listed record?
1. CN1C(=O)[C@@]23CCC(=O)N2C[C@@]12C[C@@]1(C(=O)Nc4c1ccc1c4C=CC(C)(C)O1)C(C)(C)[C@@H]2C3
2. C[C@H]1CN2C[C@]34C[C@@]5(C(=O)Nc6c5ccc5c6OC=CC(C)(C)O5)C(C)(C)[C@@H]3C[C@@]2(C1)C(=O)N4C
3. C[C@H]1CN2C[C@]34C[C@@]5(C(=O)Nc6c5ccc5c6C=CC(C)(C)O5)C(C)(C)[C@@H]3C[C@@]2(C1)C(=O)N4C
4. C[C@@H]1C[C@@]23C[C@H]4C(C)(C)[C@@]5(C[C@]4(CN2C1=O)NC3=O)C(=O)Nc1c5ccc2c1C=CC(C)(C)O2

187
269
204
244
